Origin of measurements: ChEMBL document CHEMBL4414551

Test system: dengue virus type 1
protocol-description: Antiviral activity against Dengue virus 1 WestPac infected in human HuH7 replicon cells expressing Renilla luciferase and neomycin-resistance genes assessed as reduction in viral replication incubated for 48 hrs by luciferase reporter replicon-based assay
Type: functional, organism-based
condition-notes: Huh-7, 48 h
pEC50: −log10 of the molar value.
Measured pEC50, listed per entry.
observed-property: pEC50

structure: C[C@@H](c1ccc(Cl)cc1)n1nnc2c1NC(=O)C[C@]21C(=O)N(CCCCCl)c2ccc(Cl)cc21
subject-of-test: dengue virus type 1
observed-property: pEC50
measured-result: < 5.30

structure: C[C@@H](c1ccc(Cl)cc1)n1nnc2c1NC(=O)C[C@]21C(=O)N(Cc2ccc(Cl)nc2)c2ccc(Cl)cc21
subject-of-test: dengue virus type 1
observed-property: pEC50
measured-result: < 5.30

structure: COCCCN1C(=O)C[C@]2(C(=O)Nc3ccc(Cl)cc32)c2nnn([C@@H](C)c3ccc(Cl)cc3)c21
subject-of-test: dengue virus type 1
observed-property: pEC50
measured-result: < 5.00

structure: C[C@@H](c1ccc(Cl)cc1)n1nnc2c1NC(=O)C[C@]21C(=O)N(CCO)c2ccc(Cl)cc21
subject-of-test: dengue virus type 1
observed-property: pEC50
measured-result: < 5.30

structure: C[C@@H](c1ccc(Cl)cc1)n1nnc2c1NC(=O)C[C@]21C(=O)N(C)c2ccc(Cl)cc21
subject-of-test: dengue virus type 1
observed-property: pEC50
measured-result: < 5.30

structure: C[C@@H](c1ccc(Cl)cc1)n1nnc2c1NC(=O)C[C@]21C(=O)N(CCCCCCCCN(C)C)c2ccc(Cl)cc21
subject-of-test: dengue virus type 1
observed-property: pEC50
measured-result: < 5.30

structure: COCCCN1C(=O)[C@]2(CC(=O)Nc3c2nnn3[C@@H](C)c2ccc(Cl)cc2)c2cc(Cl)ccc21
subject-of-test: dengue virus type 1
observed-property: pEC50
measured-result: < 5.30

structure: C[C@@H](c1ccc(Cl)cc1)n1nnc2c1NC(=O)C[C@]21C(=O)N(CCN2CCCCC2)c2ccc(Cl)cc21
subject-of-test: dengue virus type 1
observed-property: pEC50
measured-result: < 5.30

structure: Cc1ccc(CN2C(=O)[C@]3(CC(=O)Nc4c3nnn4[C@@H](C)c3ccc(Cl)cc3)c3cc(Cl)ccc32)cn1
subject-of-test: dengue virus type 1
observed-property: pEC50
measured-result: < 5.30

structure: C[C@@H](c1ccc(Cl)cc1)n1nnc2c1NC(=O)C[C@]21C(=O)N(Cc2ccc(Cl)cc2)c2ccc(Cl)cc21
subject-of-test: dengue virus type 1
observed-property: pEC50
measured-result: 5.66

structure: CC(C)N1C(=O)C[C@]2(C(=O)Nc3ccc(Cl)cc32)c2nnn([C@@H](C)c3ccc(Cl)cc3)c21
subject-of-test: dengue virus type 1
observed-property: pEC50
measured-result: 5.68

structure: C[C@@H](c1ccc(Cl)cc1)n1nnc2c1NC(=O)C[C@]21C(=O)N(Cc2cccc(F)c2)c2ccc(Cl)cc21
subject-of-test: dengue virus type 1
observed-property: pEC50
measured-result: 5.00

structure: C[C@@H](c1ccc(Cl)cc1)n1nnc2c1NC(=O)C[C@]21C(=O)N(CCCN(C)C)c2ccc(Cl)cc21
subject-of-test: dengue virus type 1
observed-property: pEC50
measured-result: < 5.30

structure: C[C@@H](c1ccc(Cl)cc1)n1nnc2c1N(C)C(=O)C(C)(C)[C@]21C(=O)N(C)c2ccc(Cl)cc21
subject-of-test: dengue virus type 1
observed-property: pEC50
measured-result: < 5.30

structure: C#CCN1C(=O)[C@]2(CC(=O)Nc3c2nnn3[C@@H](C)c2ccc(Cl)cc2)c2cc(Cl)ccc21
subject-of-test: dengue virus type 1
observed-property: pEC50
measured-result: < 5.30

structure: CCCN1C(=O)[C@]2(CC(=O)Nc3c2nnn3[C@@H](C)c2ccc(Cl)cc2)c2cc(Cl)ccc21
subject-of-test: dengue virus type 1
observed-property: pEC50
measured-result: 5.72

structure: C[C@@H](c1ccc(Cl)cc1)n1nnc2c1NC(=O)C[C@]21C(=O)N(CCN2CCN(C)CC2)c2ccc(Cl)cc21
subject-of-test: dengue virus type 1
observed-property: pEC50
measured-result: < 5.30

structure: C[C@@H](c1ccc(Cl)cc1)n1nnc2c1NC(=O)C[C@]21C(=O)N(Cc2cccnc2)c2ccc(Cl)cc21
subject-of-test: dengue virus type 1
observed-property: pEC50
measured-result: 5.49
